Cited source for all entries: patent US20250282866A1

Target: T1, human TREM2 (human, UniProt Q9NZC2 19-174, limits assumed)
T1 construct: also called triggering receptor expressed on myeloid cells 2
T1 sequence: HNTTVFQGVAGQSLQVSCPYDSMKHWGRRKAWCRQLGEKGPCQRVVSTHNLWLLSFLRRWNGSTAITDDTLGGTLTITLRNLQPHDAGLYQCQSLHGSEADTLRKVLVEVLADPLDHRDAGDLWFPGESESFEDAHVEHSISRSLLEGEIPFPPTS
Assay: 2nd screen 10 nM
Mark true for Binding Signal (fold over 6E7 Parental antibody) under 4 fold, false if at or over.

V27 (antibody, V domains shown) VH: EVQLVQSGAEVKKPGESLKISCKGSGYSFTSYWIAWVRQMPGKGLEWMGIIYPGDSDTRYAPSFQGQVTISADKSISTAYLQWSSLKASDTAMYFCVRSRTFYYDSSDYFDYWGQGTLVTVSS VL: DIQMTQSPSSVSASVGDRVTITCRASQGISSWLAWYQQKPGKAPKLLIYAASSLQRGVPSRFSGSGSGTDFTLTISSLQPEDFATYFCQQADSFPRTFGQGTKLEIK    false

Is 4 fold strictly greater than the binder's reported Binding Signal (fold over 6E7 Parental antibody)? binder: V36 (antibody, V domains shown) VH: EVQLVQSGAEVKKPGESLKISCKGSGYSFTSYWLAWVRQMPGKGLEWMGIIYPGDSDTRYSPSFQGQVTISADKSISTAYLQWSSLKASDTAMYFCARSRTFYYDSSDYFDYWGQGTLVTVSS VL: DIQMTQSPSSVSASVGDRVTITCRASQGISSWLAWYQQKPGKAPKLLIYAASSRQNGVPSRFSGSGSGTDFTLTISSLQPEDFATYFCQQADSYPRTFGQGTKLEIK
true

Please state whether Binding Signal (fold over 6E7 Parental antibody) is below 4 fold for V50 (antibody, V domains shown) VH: EVQLVQSGAEVKKPGESLKISCKGSGYSFGSYWIAWVRQMPGKGLEWMGVIYPGDSDTRYSPSFQGQVTISADKSISTAYLQWSSLKASDTAMYFCARQRTFYYDSSDYLDYWGQGTLVTVSS VL: DIQMTQSPSSVSASVGDRVTITCRASQGISSWLAWYQQKPGKAPKLLIYAASSRQNGVPSRFSGSGSGTDFTLTISSLQPEDFATYFCQQADSLPRTFGQGTKLEIK
false

Does the reported Binding Signal (fold over 6E7 Parental antibody) of V51 (antibody, V domains shown) VH: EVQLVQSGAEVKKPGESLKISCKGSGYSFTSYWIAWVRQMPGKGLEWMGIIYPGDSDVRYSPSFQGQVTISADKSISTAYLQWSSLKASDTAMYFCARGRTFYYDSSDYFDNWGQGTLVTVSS VL: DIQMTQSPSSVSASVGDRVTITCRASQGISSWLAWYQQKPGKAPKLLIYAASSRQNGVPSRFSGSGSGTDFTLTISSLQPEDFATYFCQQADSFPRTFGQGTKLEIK stay below 4 fold?
true
